Record form. Attribute: EC50. Fill in for each entry.
Test system: NL-RLuc virus
Assay: Inhibition of HIV replication: NL-RLuc reporter virus in MT-2 cells, luciferase readout
Assay type: cell-based
Conditions: Human immunodeficiency virus 1, MT2, 120 h, MT-2 cells infected with NL-RLuc virus, 5 days of incubation, 10% FBS, at least 2 experiments
State the value, then name its unit.

Illustrative cases are given below, each with its answer.
Cc1cc2nc3cn2c(c1[C@H](OC(C)(C)C)C(=O)O)N1CCC(C)(CC1)OCCCCCOc1ccc(F)cc1Cc1nc-3[nH]c1Cl :: 7 nM
Cc1cc2c(cc1C)-c1cccc(c1)-c1cn3c(c([C@H](OC(C)(C)C)C(=O)O)c(C)cc3n1)N1CCC(C)(CC1)OCCCC[C@H](C)O2 :: 15 nM

Now look at this one.
The observed EC50 for `CCc1c(C)c([C@H](OC(C)(C)C)C(=O)O)c2n3cc(nc13)-c1cccc(c1)-c1cc(F)c(F)cc1O[C@@H](C)CCCCOC1(C)CCN2CC1` when tested with NL-RLuc virus stands at 13 nM

---

System: NL-RLuc virus
Test: Inhibition of HIV replication: NL-RLuc reporter virus in MT-2 cells, luciferase readout
Format: cell-based
Conditions: Human immunodeficiency virus 1, MT2, 120 h, MT-2 cells infected with NL-RLuc virus, 5 days of incubation, 10% FBS, at least 2 experiments
Description: Inhibition of HIV Replication: A recombinant NL-RLuc proviral clone was constructed in which a section of the nef gene from NL4-3 was replaced with the Renilla Luciferase gene. […] In addition, the luciferous reporter provides a simple and easy method for quantitating the extent of virus growth and consequently, the antiviral activity of test compounds. […] Luciferase was quantitated using the Dual Luciferase kit from Promega (Madison, Wis.). […]
Record form. Attribute: EC50. Fill in for each entry.
Numbers only, in nM.

Illustrative cases are given below, each with its answer.
Cc1cc2nc3cn2c(c1[C@H](OC(C)(C)C)C(=O)O)N1CCC(C)(CC1)OC/C=C\C[C@H](C)Oc1cc(F)c(F)cc1-c1cccc-3c1 [Example 12] :: 3
Cc1c([C@H](OC(C)(C)C)C(=O)O)c2n3cc(nc3c1C)-c1cccc(c1)-c1cc(F)ccc1O[C@@H](C)CCCCOC1(C)CCN2CC1 [Example 33] :: 25
Cc1cc2nc3cn2c(c1[C@H](OC(C)(C)C)C(=O)O)N1CCC(C)(CC1)OCCCC[C@H](C)Oc1ccc(F)cc1-c1cccc-3c1 [Example 10] :: 4
CC(=O)c1c(C)c([C@H](OC(C)(C)C)C(=O)O)c2n3cc(nc13)-c1cccc(c1)-c1cc(F)ccc1O[C@@H](C)CCCCOC1(C)CCN2CC1 [Example 64] :: 6
Cc1cc2c(cc1F)-c1cccc(c1)-c1cn3c(c([C@H](OC(C)(C)C)C(=O)O)c(C)c(C)c3n1)N1CCC(C)(CC1)OCCCC[C@H](C)O2 [Example 30] :: 21

Now look at this one.
The observed EC50 for Cc1cc2nc3cn2c(c1[C@H](OC(C)(C)C)C(=O)O)N1CCC(C)(CC1)OCCCC[C@H](C)Oc1ccc(F)c(F)c1-c1cccc-3c1 [Example 46] when tested with NL-RLuc virus stands at 4

---

Tested on: NL-RLuc virus
Test: Inhibition of HIV replication: NL-RLuc reporter virus in MT-2 cells, luciferase readout
Assay type: cell-based
Conditions: Human immunodeficiency virus 1, MT2, 120 h, MT-2 cells infected with NL-RLuc virus, 5 days of incubation, 10% FBS, at least 2 experiments
Record form. Attribute: EC50. Fill in for each entry.
Answers are plain numbers, in nM.

Illustrative cases are given below, each with its answer.
Cc1cc2nc3cn2c(c1[C@H](OC(C)(C)C)C(=O)O)N1CCC(C)(CC1)OCCCC[C@H](C)Oc1c(F)cccc1-c1cccc-3c1 :: 7
Cc1cc2c(cc1F)-c1cccc(c1)-c1cn3c(c([C@H](OC(C)(C)C)C(=O)O)c(C)c(NS(C)(=O)=O)c3n1)N1CCC(C)(CC1)OCCCC[C@H](C)O2 :: 19

Now look at this one.
Looking up `Cc1cc2c(cc1C)-c1cccc(c1)-c1cn3c(c([C@H](OC(C)(C)C)C(=O)O)c(C)cc3n1)N1CCC(C)(CC1)OCC=CC[C@H](C)O2` , I see its EC50 listed as 6
